# System: AKT2 (human), P31751 [S474D]
# Sequence (P31751 whole entry S474D, looked up): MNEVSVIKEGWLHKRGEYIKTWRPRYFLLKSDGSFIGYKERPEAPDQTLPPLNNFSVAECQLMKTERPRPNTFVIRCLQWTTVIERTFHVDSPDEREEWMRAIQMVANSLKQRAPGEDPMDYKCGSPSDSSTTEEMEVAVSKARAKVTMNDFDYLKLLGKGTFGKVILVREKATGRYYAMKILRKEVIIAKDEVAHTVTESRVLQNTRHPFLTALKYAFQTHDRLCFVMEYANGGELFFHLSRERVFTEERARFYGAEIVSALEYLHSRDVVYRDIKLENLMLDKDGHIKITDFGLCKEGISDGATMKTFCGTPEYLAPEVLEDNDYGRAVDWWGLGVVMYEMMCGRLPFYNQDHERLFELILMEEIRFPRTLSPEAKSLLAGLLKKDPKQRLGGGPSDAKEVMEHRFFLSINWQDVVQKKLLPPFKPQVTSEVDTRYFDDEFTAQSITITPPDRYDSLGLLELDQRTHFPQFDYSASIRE
# assay-method-text: radiometric filter-binding kinase assay
# condition-label: compound 100.0 µM; ATP 50 µM
reported-property: inhibition (%)

Use the examples below as a reference point.
| compound | tgt | reported-property | scale-unit | obs-value |
| --- | --- | --- | --- | --- |
| O=C(Nc1cnc2[nH]ccn2c1=O)c1ccccc1 | AKT2 (human), P31751 [S474D] | inhibition | % | 14 |
| O=c1c(NC(=S)NCc2ccccc2)cnc2[nH]ccn12 | AKT2 (human), P31751 [S474D] | inhibition | % | 31 |
| COc1ccc(NC(=S)Nc2cnc3[nH]cnn3c2=O)cn1 | AKT2 (human), P31751 [S474D] | inhibition | % | 41 |
| Cc1cccc(C)c1-c1cn2nc(N)nc2cn1 | AKT2 (human), P31751 [S474D] | inhibition | % | 37 |
| Nc1nc2cnc(-c3ccccc3)cn2n1 | AKT2 (human), P31751 [S474D] | inhibition | % | 32 |

A. CC(C)(C)Nc1c(COCc2ccccc2)nc2[nH]cnn12
B. CC1CN(c2nc3ccccn3c(=O)c2N)CC(C)O1 (configuration not stated)
QUERY: When their inhibition values are compared, which is larger, A or B ? Selection: enter the item's label.
RESULT: A
(A: 39%, B: 24%)

The values you see were collected from the kinase profiling compilation of Christmann-Franck et al. (2016).
